Below, each entry is listed with its recorded Kd.
Molecular target: VEGF165 (Homo sapiens, UniProt P15692-4 P15692-4:27-191)
Sequence (P15692 other isoform, or with tags, fused parts or gaps): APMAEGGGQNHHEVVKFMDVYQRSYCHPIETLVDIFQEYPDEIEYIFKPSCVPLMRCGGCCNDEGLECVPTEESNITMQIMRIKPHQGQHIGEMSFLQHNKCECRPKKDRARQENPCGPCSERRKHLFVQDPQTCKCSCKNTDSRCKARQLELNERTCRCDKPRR
Assay: filter; 37 C
Conditions: tags: R&D Systems, expressed in Sf21 insect cells, carrier-free; chain copies: 2
Output spec: scalar in nM, unitless text.

Record excerpt, results attached:
| BINDER | UOM | Kd |
| --- | --- | --- |
| GGCGAACCGAUGGAAUUUUUGGACGCUCGCCT (ssRNA, 2'-F pyrimidines, 2'-OH purines, 3'-3' dT cap [32 (3'-3' dT cap); 2'-F pyrimidines 3,7,8,11,16,17,18,19,20,24,26,27,28,30,31]) [t2] | nM | 0.02 |
| GACGAUGCGGUAGGAAGAAUUGGAAGCGCT (ssRNA, 2'-F pyrimidines, 2'-OH purines, 3'-3' dT cap [30 (3'-3' dT cap); 2'-F pyrimidines 3,6,8,11,20,21,27,29]) [t22] | nM | 0.07 |
| GGUAGGAAGAAUUGGAAGCGCT (ssRNA, 2'-F pyrimidines, 2'-OH purines, 3'-3' dT cap [22 (3'-3' dT cap); 2'-F pyrimidines 3,12,13,19,21]) [t22e] | nM | 0.2 |

Next, consider the following binder.
# query: Kd of entry GACGAUGCGGUAGGAAGAAUUGGAAGCGC (ssRNA, 2'-F pyrimidines, 2'-OMe purines except 2'-OH at A12, G22) [t22OMe (OH-12,22)]
0.09

Value source: patent US6051698
